meta.source: patent US5686466A

Test system: [^3 H]-norepinephirine(NE) uptake
Assay: monoamine uptake inhibition, [^3 H]-norepinephirine (NE), crude synaptosomal preparations of cerebral cortex and hippocampus
Type: biochemical
Settings: [^3 H]-NE 11 nM; 37° C; rat synaptosomes; read-out: Monoamine Reuptake Inhibitory Activity IC50, NE
measured_property: IC50 (nM)
Answers are plain numbers, in nM.

• O=C(CCN1CCN(Cc2ccccc2Cl)CC1)c1cc2c3c(c1)CCN3C(=O)CC2 = 1540
• Cc1ccc(CN2CCN(CCC(=O)c3cc4c5c(c3)CCN5C(=O)CC4)CC2)cc1C = 2810
• O=C(CCN1CCN(Cc2ccc([N+](=O)[O-])cc2)CC1)c1cc2c3c(c1)CC(=O)N3CCC2 = 7480

// returns reported IC50 for input `O=C(CCN1CCN(Cc2cccc(F)c2)CC1)c1cc2c3c(c1)CCN3C(=O)CC2` 1310

* * *

Biological target: Acetylcholinesterase (Rattus norvegicus)
Sequence (P37136 32-614): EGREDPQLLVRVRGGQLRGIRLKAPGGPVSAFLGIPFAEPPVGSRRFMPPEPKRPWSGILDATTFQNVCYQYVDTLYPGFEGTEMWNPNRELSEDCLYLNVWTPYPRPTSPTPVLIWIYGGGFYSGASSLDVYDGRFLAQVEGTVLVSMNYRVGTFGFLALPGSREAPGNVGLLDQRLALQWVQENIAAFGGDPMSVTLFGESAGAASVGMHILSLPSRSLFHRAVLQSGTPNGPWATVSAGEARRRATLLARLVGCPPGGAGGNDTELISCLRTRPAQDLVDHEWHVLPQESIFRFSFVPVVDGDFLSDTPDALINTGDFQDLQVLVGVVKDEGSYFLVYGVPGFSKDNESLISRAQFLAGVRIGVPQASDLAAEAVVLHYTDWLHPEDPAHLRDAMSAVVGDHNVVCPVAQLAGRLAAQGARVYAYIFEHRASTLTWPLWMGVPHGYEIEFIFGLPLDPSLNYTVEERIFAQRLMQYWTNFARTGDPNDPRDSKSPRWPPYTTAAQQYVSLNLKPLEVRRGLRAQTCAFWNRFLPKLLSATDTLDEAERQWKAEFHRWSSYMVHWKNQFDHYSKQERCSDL
pIC50: −log10 of the molar value.
Use Yes when the recorded pIC50 is no lower than 7; use No when it is lower.

Study these solved cases before continuing.
- O=C(CCC1CCN(Cc2ccc([N+](=O)[O-])cc2)CC1)c1cc2c3c(c1)CCN3C(=O)CC2: Yes
- CC(=O)N1Cc2ccccc2-c2ccc(C(=O)CCN3CCN(Cc4ccccc4)CC3)cc2C1: No
- O=C(CCC1CCN(Cc2ccccc2O)CC1)c1cc2c3c(c1)CCN3C(=O)CC2: Yes
- O=C(CCN1CCC(Cc2ccccc2)CC1)c1cc2c3c(c1)CCN3C(=O)CC2: No
- COc1ccc(C(=O)N2Cc3ccccc3-c3ccc(C(=O)CCN4CCN(Cc5ccccc5)CC4)cc3C2)cc1: Yes

With those in mind, consider the next molecule.
Please tell me: is the molecule `O=CN1Cc2cc(C(=O)CCN3CCN(Cc4ccccc4)CC3)ccc2Oc2ccccc21` at or over 7 in terms of pIC50? Yes

* * *

Biological target: Acetylcholinesterase (Rattus norvegicus)
Hi there, I'd appreciate the recorded IC50 for every entry that follows.

Consider the following illustrative entries.
* Cc1cccc(CN2CCC(CCC(=O)c3cc4c5c(c3)CCN5C(=O)CC4)CC2)c1 [30-46] | 0.2 nM
* O=C(CCN1CCN(Cc2cccc(Cl)c2)CC1)c1cc2c3c(c1)CC(=O)N3CCC2 [30-4] | 43 nM
* CC1CC(=O)N2CCc3cc(C(=O)CCN4CCN(Cc5ccccc5)CC4)cc1c32 (stereo not drawn) [17-4] | 9.5 nM
* O=C(CCN1CCN(Cc2cccc(F)c2)CC1)c1cc2c3c(c1)CC(=O)N3CCC2 [30-11] | 16.9 nM
* O=C(CCC1CCN(Cc2cccc(F)c2)CC1)c1cc2c3c(c1)CCN3C(=O)CC2 [30-40] | 0.092 nM

Below are 8 molecules. Give each one its IC50.
1. O=C(CCN1CCN(Cc2ccccc2)CC1)c1ccc2c(c1)CNc1ccccc1O2 [32-3]
2. O=C(CCN1CCN(Cc2ccccc2)CC1)c1ccc2c(c1)CN(Cc1ccccc1)Cc1ccccc1-2 [34-1]
3. O=C(CCC1CCN(Cc2ccccc2)CC1)c1cc2c3c(c1)CCN3C(=O)CC2 [30-38]
4. COc1ccccc1CN1CCN(CCC(=O)c2cc3c4c(c2)CCN4C(=O)CC3)CC1 [30-32]
5. O=C(CCN1CCN(Cc2ccc(F)cc2)CC1)c1cc2c3c(c1)CC(=O)N3CCC2 [30-12]
6. O=C(CCN1CCN(Cc2ccccc2O)CC1)c1cc2c3c(c1)CC(=O)N3CCC2 [30-16]
7. O=C(CCN1CCN(Cc2ccccc2)CC1)c1cc2c3c(c1)CC(=O)N3CCCC2 [17-3]
8. CN1CC2CCCc3c(C(=O)CCC4CCN(Cc5ccccc5)CC4)ccc1c32 (stereo not drawn) [16-1]

1: 59 nM; 2: 39.3 nM; 3: 0.18 nM; 4: 91.1 nM; 5: 23.9 nM; 6: 5.8 nM; 7: 17.2 nM; 8: 154 nM

Below are 5 molecules. Give each one its IC50.
1. O=C(CCN1CCN(Cc2cccc(F)c2)CC1)c1cc2c3c(c1)CCN3C(=O)CC2 [30-25]
2. O=C(CCC1CCN(Cc2ccccc2)CC1)c1cc2c3c(c1)CC(=O)N3CCC2 [30-34]
3. CCC(=O)N1CC2CCCc3c(C(=O)CCC4CCN(Cc5ccccc5)CC4)ccc1c32 (stereo not drawn) [20-1]
4. O=C(CCN1CCN(Cc2ccccc2)CC1)c1ccc2c(c1)CNc1ccccc1C2 [32-2]
5. Cc1ccccc1CN1CCN(CCC(=O)c2cc3c4c(c2)CCN4C(=O)CC3)CC1 [30-18]

0.098 nM
0.5 nM
182 nM
115 nM
24.9 nM

* * *

Target: Acetylcholinesterase (Rattus norvegicus)
Structures can show the parent of a compound that is named as a salt.
IC50 less than 10 nM is label 1; IC50 greater than or equal to 10 nM is label 0.

Study these solved cases before continuing.
- O=C(CCN1CCN(Cc2ccc(F)cc2)CC1)c1cc2c3c(c1)CCN3C(=O)CC2 [30-26]: label 1
- Cc1ccccc1CN1CCN(CCC(=O)c2cc3c4c(c2)CC(=O)N4CCC3)CC1 [compound 23, dihydrochloride]: label 0
- Cc1ccc(C)c(CN2CCC(CCC(=O)c3cc4c5c(c3)CCN5C(=O)CC4)CC2)c1 [30-56]: label 0
- O=C(CCC1CCN(Cc2cccc([N+](=O)[O-])c2)CC1)c1cc2c3c(c1)CCN3C(=O)CC2 [30-52]: label 1
- O=C(CCN1CCN(Cc2ccccc2)CC1)c1cc2c3c(c1)CCC(=O)N3CCC2 [17-6]: label 0
- Cc1ccc(CN2CCC(CCC(=O)c3cc4c5c(c3)CCN5C(=O)CC4)CC2)c(C)c1 [30-54]: label 0
- O=C(CCN1CCN(Cc2ccccc2F)CC1)c1cc2c3c(c1)CCN3C(=O)CC2 [30-24]: label 1
- O=C(CCC1CCN(Cc2ccc(F)cc2)CC1)c1cc2c3c(c1)CCN3C(=O)CC2 [30-41]: label 1

A record lists O=C(CCN1CCN(Cc2ccccc2)CC1)c1cc2c3c(c1)CCN3C(=O)CC2 [17-1] . Is its IC50 below 10 nM? label 1

Same read-out for O=C(CCC1CCN(Cc2ccccc2F)CC1)c1cc2c3c(c1)CCN3C(=O)CC2 [30-39] ? label 1

* * *

Test system: [^3 H]-norepinephirine(NE) uptake
Test: monoamine uptake inhibition, [^3 H]-norepinephirine (NE), crude synaptosomal preparations of cerebral cortex and hippocampus
Assay type: biochemical
Conditions: [^3 H]-NE 11 nM; 37° C; rat synaptosomes; read-out: Monoamine Reuptake Inhibitory Activity IC50, NE
Counter-ions that a name gives are not always drawn.
measured_property: IC50 (nM)
Give bare numbers, in nM.

• O=C(CCN1CCN(Cc2ccc3c(c2)OCO3)CC1)c1cc2c3c(c1)CC(=O)N3CCC2 [31-1] = 6180
• Cc1ccc(C)c(CN2CCN(CCC(=O)c3cc4c5c(c3)CCN5C(=O)CC4)CC2)c1 [30-27] = 559
• Cc1cccc(CN2CCN(CCC(=O)c3cc4c5c(c3)CC(=O)N5CCC4)CC2)c1 [30-1] = 4600
• O=CN1Cc2ccccc2-c2ccc(C(=O)CCN3CCC(Cc4ccccc4)CC3)cc2C1 [31-11] = 515
• O=C(CCN1CCN(Cc2ccccc2)CC1)c1ccc2c(c1)CN(C(=O)c1ccccc1)Cc1ccccc1-2 [34-4] = 456
• O=C(CCN1CCN(Cc2ccccc2)CC1)c1ccc2c3c1CCCC3CN2 (centres unmarked) [compound 2, trihydrochloride] = 420
• O=C(CCN1CCC(Cc2ccccc2)CC1)c1cc2c3c(c1)CC(=O)N3CCC2 [31-2] = 73.8
• CN(C)CCCN1c2ccccc2CCc2ccccc21 [Imipramine, reference compound] = 1120
• O=C(CCC1CCN(Cc2ccccc2)CC1)c1ccc2c3c1CCCC3CN2 (centres unmarked) [compound 4, dihydrochloride] = 347
• O=C(CCN1CCC(Cc2ccccc2)CC1)c1cc2c3c(c1)CCN3C(=O)CC2 [31-4] = 160

Below are 7 compounds. Give each one its IC50.
1. Cc1cccc(CN2CCN(CCC(=O)c3cc4c5c(c3)CCN5C(=O)CC4)CC2)c1 [30-19]
2. Cc1ccccc1CN1CCN(CCC(=O)c2cc3c4c(c2)CC(=O)N4CCC3)CC1 [compound 23, dihydrochloride]
3. O=C(CCN1CCN(Cc2ccccc2)CC1)c1ccc2c(c1)C1CCCCC1N2 (centres unmarked) [19-1]
4. O=C(CCN1CCN(Cc2cccc(Cl)c2)CC1)c1cc2c3c(c1)CCN3C(=O)CC2 [30-22]
5. CCc1ccccc1CN1CCN(CCC(=O)c2cc3c4c(c2)CC(=O)N4CCC3)CC1 [30-6]
6. O=C(CCN1CCC(Cc2ccccc2)CC1)c1ccc2c(c1)CN(C(=O)c1ccccc1)Cc1ccccc1-2 [34-8]
7. Cc1ccc(CN2CCN(CCC(=O)c3cc4c5c(c3)CC(=O)N5CCC4)CC2)cc1C [30-8]

1: 2820; 2: 2430; 3: 328; 4: 795; 5: 5960; 6: 197; 7: 643
